experiment: Pharmacokinetics of methotrexate after intravenous administration with and without febuxostat in rats; type: in vivo, rat; settings: male, Wistar, rat, plasma, iv, 2 mg/kg, methotrexate 2 mg/kg i.v., febuxostat (+) 1 mg/kg i.v., mean ± S.D., n = 4
readout kind: half-life (min)
Give your result in min as a bare value.

**Query** # input compound: CN(Cc1cnc2nc(N)nc(N)c2n1)c1ccc(C(=O)N[C@@H](CCC(=O)O)C(=O)O)cc1 [methotrexate] ; wanted: its half-life
**Result** 14

###

molecular target: hOAT3 (Homo sapiens, UniProt Q8TCC7); assay: Inhibition of hOAT3-mediated methotrexate transport by febuxostat in HEK-hOAT3 cells (inhibition plot, Dixon plot); type: cell-based; parameters: expressed in transfected cells; host or cells: HEK293 (HEK-hOAT3), gift of Dr. Atsushi Yonezawa, Kyoto University Hospital; mock control HEK-pBK (pBKCMV vector)
Sequence (Q8TCC7 whole entry): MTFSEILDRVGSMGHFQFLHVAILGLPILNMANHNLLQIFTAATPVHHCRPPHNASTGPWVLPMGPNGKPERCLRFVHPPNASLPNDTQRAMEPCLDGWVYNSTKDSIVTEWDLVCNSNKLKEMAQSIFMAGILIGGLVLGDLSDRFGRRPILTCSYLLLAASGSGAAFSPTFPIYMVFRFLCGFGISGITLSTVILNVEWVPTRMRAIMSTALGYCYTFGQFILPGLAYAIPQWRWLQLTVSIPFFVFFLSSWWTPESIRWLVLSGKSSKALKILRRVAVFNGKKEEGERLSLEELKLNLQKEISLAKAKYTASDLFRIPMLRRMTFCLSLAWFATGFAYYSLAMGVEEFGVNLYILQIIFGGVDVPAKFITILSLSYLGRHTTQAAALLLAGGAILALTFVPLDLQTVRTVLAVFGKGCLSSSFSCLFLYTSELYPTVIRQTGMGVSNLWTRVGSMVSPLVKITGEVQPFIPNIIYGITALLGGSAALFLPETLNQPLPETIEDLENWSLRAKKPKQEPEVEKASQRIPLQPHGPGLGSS
readout kind: pKi
API: returns pKi as number; meaning -log10 of concentration in mol/L.

**Query** If you can, please state the reported pKi value of Cc1nc(-c2ccc(OCC(C)C)c(C#N)c2)sc1C(=O)O .
**Result** 6.20
